B1: LINE1-full (parent)
chain: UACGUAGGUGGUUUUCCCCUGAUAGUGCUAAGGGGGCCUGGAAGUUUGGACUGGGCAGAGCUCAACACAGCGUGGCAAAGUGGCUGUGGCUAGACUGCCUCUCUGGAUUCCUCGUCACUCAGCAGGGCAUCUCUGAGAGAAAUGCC

- Variants of: B1
- test details: self-cleavage, relative activity (ratio to wild type); higher = more cleavage; in vitro, sequencing; the parent is a self-cleaving ribozyme
readout type: self-cleavage
Respond with the number and no other words.

The variant listed as U15C A50U shows self-cleavage equal to 1

Looking up U9A A138U , I found its self-cleavage recorded as 1.01

self-cleavage measured on U9C U109C = 0.99
